targetUnderTest: G-protein coupled receptor 151 (Homo sapiens) (UniProt Q8TDV0)
Sequence (Q8TDV0 whole entry, looked up): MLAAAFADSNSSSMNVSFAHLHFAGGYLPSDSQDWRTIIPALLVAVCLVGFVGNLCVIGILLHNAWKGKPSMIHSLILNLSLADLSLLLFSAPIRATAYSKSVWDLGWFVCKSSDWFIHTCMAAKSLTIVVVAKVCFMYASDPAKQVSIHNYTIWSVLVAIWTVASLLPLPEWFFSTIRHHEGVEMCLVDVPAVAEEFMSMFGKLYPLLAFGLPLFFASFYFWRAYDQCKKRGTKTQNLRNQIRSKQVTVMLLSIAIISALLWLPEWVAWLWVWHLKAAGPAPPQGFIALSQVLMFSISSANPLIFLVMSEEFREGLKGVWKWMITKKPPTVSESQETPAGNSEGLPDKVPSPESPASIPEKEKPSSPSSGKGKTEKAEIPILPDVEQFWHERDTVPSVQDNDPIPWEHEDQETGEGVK
methodSummary: GPR151 activator potency, dose response, cell-based (AID 1508610)
experimentalParameters: cell-based GPR151 activation reporter
The source made the active and inactive calls. No rule for the calls is given here.
Hi! Could you answer with just one of these? TRUE (active), FALSE (inactive)

- compound: "CCC(C)c1ccccc1NC(=S)NC(C)=O (stereo not drawn)"
  targetUnderTest: "G-protein coupled receptor 151 (Homo sapiens) (UniProt Q8TDV0)"
  assignedCategory: "FALSE"
- compound: "Cc1ccc(NC(=O)CCNc2c(N3CCCC3)c(=O)c2=O)cc1Cl"
  targetUnderTest: "G-protein coupled receptor 151 (Homo sapiens) (UniProt Q8TDV0)"
  assignedCategory: "FALSE"
- compound: "COc1cccc(-c2ccc(=O)n(CC(=O)Nc3ccc(Cl)c(C(F)(F)F)c3)n2)c1"
  targetUnderTest: "G-protein coupled receptor 151 (Homo sapiens) (UniProt Q8TDV0)"
  assignedCategory: "FALSE"
- compound: "Cc1ccc(Oc2nc3ccccn3c(=O)c2/C=C(\\C#N)C(N)=O)c(C)c1"
  targetUnderTest: "G-protein coupled receptor 151 (Homo sapiens) (UniProt Q8TDV0)"
  assignedCategory: "FALSE"
- compound: "Cc1cccc(N2CCN(C(=O)c3ccc(S(=O)(=O)c4ccc(F)cc4)c([N+](=O)[O-])c3)C(C)C2)c1 (stereo not drawn)"
  targetUnderTest: "G-protein coupled receptor 151 (Homo sapiens) (UniProt Q8TDV0)"
  assignedCategory: "FALSE"

query: Which outcome was assigned to COc1ccc(C(=O)N(C)Cc2ccccc2)cc1I in this test?
result: FALSE

query: How about O=C1CS/C(=C\c2nc3ccccc3s2)N1 ?
result: FALSE

query: How about CC(C(=O)O)c1ccc(C(=O)c2ccccc2)s1 (stereo not drawn) ?
result: FALSE

query: How about COc1ccc(CCN2C(=O)c3ccc(Oc4ccc(Nc5ncnc6ccccc56)cc4)cc3C2=O)cc1OC ?
result: TRUE

query: How about CCCNC(=O)c1ccc(-c2ccc(N3CCOCC3)nc2)s1 ?
result: FALSE

query: How about Cc1ccc(C(=O)NN=C2CCC(C)CC2)cc1 (stereo not drawn) ?
result: FALSE
